Where these numbers come from: patent US7208517B1

- EXPERIMENTAL_TARGET: human ETB receptor (Homo sapiens)
- Construct: expressed in transfected cells; host or cells: CHO cells, permanently transfected
- Sequence (P24530 27-442): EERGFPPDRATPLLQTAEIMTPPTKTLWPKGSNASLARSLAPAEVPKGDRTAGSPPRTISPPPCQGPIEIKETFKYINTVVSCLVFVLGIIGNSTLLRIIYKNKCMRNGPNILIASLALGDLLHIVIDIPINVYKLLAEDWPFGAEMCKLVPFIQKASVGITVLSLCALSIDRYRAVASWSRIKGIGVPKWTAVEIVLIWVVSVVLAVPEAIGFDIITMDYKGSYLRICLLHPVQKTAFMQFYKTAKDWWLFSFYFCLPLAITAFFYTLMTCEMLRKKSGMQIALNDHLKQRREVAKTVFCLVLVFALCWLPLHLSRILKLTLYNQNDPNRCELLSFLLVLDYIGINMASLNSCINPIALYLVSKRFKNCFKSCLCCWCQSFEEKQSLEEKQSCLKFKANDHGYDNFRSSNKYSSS
- ASSAY_METHOD_TEXT: ETA/ETB selectivity: (125I)ET-3 competition binding, CHO cells transfected with human ETB receptor (hET-B)
- PROTOCOL_CONDITIONS: CHO cells transfected with human ETB receptor; 0.1 nM (125I)ET-3; read-out: hET-B IC50
pIC50: −log10 of the molar value.
ENDPOINT_LABEL: pIC50

Please review the entries below; each comes with its answer.
CCCCN(CCCC)C(=O)CN1C[C@H](c2ccc3c(c2)OCO3)[C@@H](C(=O)O)[C@@H]1CC(C)(C)CCC = 5.72
CCCCN(C(=O)CN1CC(c2ccc3c(c2)OCO3)C(C(=O)O)C1c1ccc(OC)cc1)c1cccnc1 (centres unmarked) = 6.06
CCCCN(CCCC)C(=O)CN1CC(c2cc(OC)c3c(c2)OCO3)C(C(=O)O)C1CC(C)(C)C1OCCO1 (centres unmarked) = 4.43
CCCCN(CCCC)C(=O)CN1CC(c2cc(OC)c3c(c2)OCO3)C(C(=O)O)C1CCC1OCCO1 (centres unmarked) = 4.64
CCCCN(CCCC)C(=O)CN1CC(c2ccc3c(c2)OCO3)C(C(=O)O)C1CCc1ccccc1OC (centres unmarked) = 4.92
CCCC(CCC)N(C(=O)CN1C[C@H](c2ccc3c(c2)OCO3)[C@@H](C(=O)O)[C@@H]1CC(C)(C)CCC)c1ccc(F)c(C)c1 = 4.82
CCCCN(CCCC)C(=O)CN1CC(c2ccc3c(c2)OCO3)C(C(=O)O)C1CC(C)(C)C=C(C)C (centres unmarked) = 4.21
CCCCN(CCCC)C(=O)CN1CC(c2ccc3c(c2)OCO3)C(C(=O)O)C1CCc1ccccn1 (centres unmarked) = 4.72
CCCC(CCC)N(C(=O)CN1CC(c2cc(OC)c3c(c2)OCO3)C(C(=O)O)C1CCC1OCCO1)c1ccc(F)c(C)c1 (centres unmarked) = 4.85
CCCCN(CCCO)C(=O)CN1CC(c2ccc3c(c2)OCO3)C(C(=O)O)C1c1ccc(OC)cc1 (centres unmarked) = 6.54

P: CCCON(CCC)C(=O)CN1CC(c2ccc3c(c2)OCO3)C(C(=O)O)C1c1ccc(OC)cc1 (centres unmarked)
Q: CCCCN(CCCN)C(=O)CN1CC(c2ccc3c(c2)OCO3)C(C(=O)O)C1c1ccc(OC)cc1 (centres unmarked)
Task: When P and Q are compared, which has the higher number for pIC50? Kindly state the label of the option you pick.
Output: P

---

- EXPERIMENTAL_TARGET: ETB receptors of porcine cerebellar tissues (pET-B) (Sus scrofa)
- Construct: porcine cerebellar tissues (known to contain ETB receptors); from tissue; host or cells: porcine cerebellum (membranes)
- Sequence (P35463 27-443): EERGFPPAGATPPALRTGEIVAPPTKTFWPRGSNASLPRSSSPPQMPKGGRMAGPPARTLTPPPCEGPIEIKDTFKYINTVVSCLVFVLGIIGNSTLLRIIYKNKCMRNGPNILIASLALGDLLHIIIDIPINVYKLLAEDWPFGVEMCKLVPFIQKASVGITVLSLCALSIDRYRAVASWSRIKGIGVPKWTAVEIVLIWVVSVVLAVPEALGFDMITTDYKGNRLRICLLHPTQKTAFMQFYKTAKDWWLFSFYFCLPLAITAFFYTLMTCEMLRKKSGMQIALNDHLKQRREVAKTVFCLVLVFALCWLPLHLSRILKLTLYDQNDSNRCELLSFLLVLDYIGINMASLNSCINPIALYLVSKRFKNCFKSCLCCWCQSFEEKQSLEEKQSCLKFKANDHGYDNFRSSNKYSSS
- ASSAY_METHOD_TEXT: ETA/ETB selectivity: (125I)ET-3 competition binding, ETB assay in porcine cerebellum membranes (pET-B)
- PROTOCOL_CONDITIONS: porcine cerebellum membranes; 0.1 nM (125I)ET-3; read-out: pET-B IC50
ENDPOINT_LABEL: IC50 (µM)

Please review the entries below; each comes with its answer.
CCCCN(CCCC)C(=O)CN1C[C@H](c2ccc3c(c2)OCO3)[C@@H](C(=O)O)[C@@H]1CCN1CCCC1=O = 28
CCCCN(CCCC)C(=O)CN1CC(c2ccc3c(c2)OCO3)C(C(=O)O)C1COc1ccccc1OC (centres unmarked) = 35
CCCCN(CCCC)C(=O)CN1C[C@H](c2ccc3c(c2)OCO3)[C@@H](C(=O)O)[C@@H]1CC(C)(C)CCC = 5.9
CCCCN(CCCO)C(=O)CN1CC(c2ccc3c(c2)OCO3)C(C(=O)O)C1c1ccc(OC)cc1 (centres unmarked) = 0.36
CCCCN(CCCN(C)C)C(=O)CN1CC(c2ccc3c(c2)OCO3)C(C(=O)O)C1c1ccc(OC)cc1 (centres unmarked) = 10

P: CCCC(CCC)N(C(=O)CN1C[C@H](c2ccc3c(c2)OCO3)[C@@H](C(=O)O)[C@@H]1CCN1CCCC1=O)c1ccc(F)c(C)c1
Q: CCCCN(CCCC)C(=O)CN1CC(c2ccc3c(c2)OCO3)C(C(=O)O)C1CCC1CCCCO1 (centres unmarked)
R: CCCC(CCC)N(C(=O)CN1CC(c2cc(OC)c3c(c2)OCO3)C(C(=O)O)C1CCC1OCCO1)c1ccc(F)c(C)c1 (centres unmarked)
S: CCCCCS(=O)(=O)N(CCC)CCN1C[C@H](c2ccc3c(c2)OCO3)[C@@H](C(=O)O)[C@@H]1c1ccc(OC)c(F)c1
T: CCCCN(C(=O)CN1CC(c2ccc3c(c2)OCO3)C(C(=O)O)C1c1ccc(OC)cc1)c1cccc(CN)c1 (centres unmarked)
Task: Given 5 compounds, produce a descending ranking by IC50. Please list the labels according to the requested order.
Output: Q, P, R, T, S

---

- EXPERIMENTAL_TARGET: ETA Receptor (Rattus norvegicus, UniProt P26684)
- Construct: endogenous in cells; host or cells: MMQ rat pituitary cells (membranes)
- Sequence (P26684 21-426): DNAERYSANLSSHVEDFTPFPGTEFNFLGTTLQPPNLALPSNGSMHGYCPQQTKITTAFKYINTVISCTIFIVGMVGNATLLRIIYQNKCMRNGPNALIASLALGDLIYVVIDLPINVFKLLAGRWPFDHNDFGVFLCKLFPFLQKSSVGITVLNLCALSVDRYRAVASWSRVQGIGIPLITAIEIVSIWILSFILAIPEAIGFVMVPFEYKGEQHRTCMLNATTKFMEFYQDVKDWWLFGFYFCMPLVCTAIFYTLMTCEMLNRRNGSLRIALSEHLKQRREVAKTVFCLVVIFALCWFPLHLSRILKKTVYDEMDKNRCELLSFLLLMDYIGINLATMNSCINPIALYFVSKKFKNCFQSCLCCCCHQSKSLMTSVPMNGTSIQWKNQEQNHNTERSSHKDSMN
- ASSAY_METHOD_TEXT: [125I]ET-1 binding to membranes from MMQ cells (ETA receptor binding assay, Table 4)
- PROTOCOL_CONDITIONS: test compound at 1 μM; 0.1 nM [125I]ET-1, MMQ cell membranes, 4 hours at 25° C.; read-out: % Inhibition of ETA at 1 μM
ENDPOINT_LABEL: inhibition at 1 µM (%)

CCCCN(C(=O)CN1CC(c2ccc3c(c2)OCO3)C(C(=O)O)C1c1ccc(OC)cc1)c1cccc(CN)c1 (centres unmarked) = 100
CCCCN(CCCC)C(=O)CN1CC(c2ccc3c(c2)OCO3)C(C(=O)O)C1CCC1OCCO1 (centres unmarked) = 97.1
CCCCN(CCCC)C(=O)CN1CC(c2ccc3c(c2)OCO3)C(C(=O)O)C1CC(C)(C)C=C(C)C (centres unmarked) = 99.7
CCCCN(CCCC)C(=O)CN1CC(c2ccc3c(c2)OCO3)C(C(=O)O)C1CC(C)(C)CCC (centres unmarked) = 97
CCCCN(CCCC)C(=O)CN1CC(c2ccc3c(c2)OCO3)C(C(=O)O)C1CCc1ccccc1OC (centres unmarked) = 94.1
CCCCN(CCCC)C(=O)CN1CC(c2cc(OC)c3c(c2)OCO3)C(C(=O)O)C1CC(C)(C)C1OCCO1 (centres unmarked) = 99.7
CCCC(CCC)N(C(=O)CN1C[C@H](c2ccc3c(c2)OCO3)[C@@H](C(=O)O)[C@@H]1CC(C)(C)CCC)c1ccc(F)c(C)c1 = 99.2
CCCCN(CCCC)C(=O)CN1C[C@H](c2ccc3c(c2)OCO3)[C@@H](C(=O)O)[C@@H]1CC(C)(C)CCC = 97.2
CCCCN(CCCN)C(=O)CN1CC(c2ccc3c(c2)OCO3)C(C(=O)O)C1c1ccc(OC)cc1 (centres unmarked) = 100
CCCCN(CCCC)C(=O)CN1CC(c2ccc3c(c2)OCO3)C(C(=O)O)C1COc1ccccc1OC (centres unmarked) = 100
CCC[C@H](C(=O)N(CCC)CCC)N1C[C@H](c2ccc3c(c2)OCO3)[C@H](C(=O)O)[C@H]1c1ccc(OC)cc1 = 93.1
CCCCN(CCCC)C(=O)CN1CC(c2ccc3c(c2)OCO3)C(C(=O)O)C1CCN1CCCC1=O (centres unmarked) = 98.9
CCC[C@H](C(=O)N(CCC)CCC)N1C[C@@H](c2ccc3c(c2)OCO3)[C@@H](C(=O)O)[C@@H]1c1ccc(OC)cc1 [Example 75C] = 95.3
CCCCN(CCCC)C(=O)CN1C[C@H](c2ccc3c(c2)CCO3)[C@@H](C(=O)O)[C@@H]1CC(C)(C)CCC = 99.1

---

- EXPERIMENTAL_TARGET: ETA Receptor (Rattus norvegicus)
- Construct: endogenous in cells; host or cells: MMQ rat pituitary cells (membranes)
- ASSAY_METHOD_TEXT: [125I]ET-1 binding to membranes from MMQ cells (ETA receptor binding assay, Table 4)
- PROTOCOL_CONDITIONS: test compound at 1 μM; 0.1 nM [125I]ET-1, MMQ cell membranes, 4 hours at 25° C.; read-out: % Inhibition of ETA at 1 μM
ENDPOINT_LABEL: inhibition at 1 µM (%)

CCCCN(CCCN(C)C)C(=O)CN1CC(c2ccc3c(c2)OCO3)C(C(=O)O)C1c1ccc(OC)cc1 (stereo not shown) = 96.6
CCCCN(CCCO)C(=O)CN1CC(c2ccc3c(c2)OCO3)C(C(=O)O)C1c1ccc(OC)cc1 (stereo not shown) = 99
CCCCN(CCCC)C(=O)CN1CC(c2ccc3c(c2)OCO3)C(C(=O)O)C1CC(C)(C)C1OCCO1 (stereo not shown) = 99.3
COc1ccc(C2C(C(=O)O)C(c3ccc4c(c3)OCO4)CN2CC(=O)Nc2ccccc2)cc1 (stereo not shown) = 95.9
